Please consider the recorded log10 of IC50 for Epidermal growth factor receptor (Homo sapiens, UniProt P00533) in what follows.
Please interpret these as log10 of IC50 where IC50 is in nM.

Tell me log10 of IC50 of `COc1cc(/C=C(\C#N)C(N)=O)cc(CSc2ccccc2)c1O` when tested on Epidermal growth factor receptor (Homo sapiens, UniProt P00533).
Sequence (P00533 whole entry): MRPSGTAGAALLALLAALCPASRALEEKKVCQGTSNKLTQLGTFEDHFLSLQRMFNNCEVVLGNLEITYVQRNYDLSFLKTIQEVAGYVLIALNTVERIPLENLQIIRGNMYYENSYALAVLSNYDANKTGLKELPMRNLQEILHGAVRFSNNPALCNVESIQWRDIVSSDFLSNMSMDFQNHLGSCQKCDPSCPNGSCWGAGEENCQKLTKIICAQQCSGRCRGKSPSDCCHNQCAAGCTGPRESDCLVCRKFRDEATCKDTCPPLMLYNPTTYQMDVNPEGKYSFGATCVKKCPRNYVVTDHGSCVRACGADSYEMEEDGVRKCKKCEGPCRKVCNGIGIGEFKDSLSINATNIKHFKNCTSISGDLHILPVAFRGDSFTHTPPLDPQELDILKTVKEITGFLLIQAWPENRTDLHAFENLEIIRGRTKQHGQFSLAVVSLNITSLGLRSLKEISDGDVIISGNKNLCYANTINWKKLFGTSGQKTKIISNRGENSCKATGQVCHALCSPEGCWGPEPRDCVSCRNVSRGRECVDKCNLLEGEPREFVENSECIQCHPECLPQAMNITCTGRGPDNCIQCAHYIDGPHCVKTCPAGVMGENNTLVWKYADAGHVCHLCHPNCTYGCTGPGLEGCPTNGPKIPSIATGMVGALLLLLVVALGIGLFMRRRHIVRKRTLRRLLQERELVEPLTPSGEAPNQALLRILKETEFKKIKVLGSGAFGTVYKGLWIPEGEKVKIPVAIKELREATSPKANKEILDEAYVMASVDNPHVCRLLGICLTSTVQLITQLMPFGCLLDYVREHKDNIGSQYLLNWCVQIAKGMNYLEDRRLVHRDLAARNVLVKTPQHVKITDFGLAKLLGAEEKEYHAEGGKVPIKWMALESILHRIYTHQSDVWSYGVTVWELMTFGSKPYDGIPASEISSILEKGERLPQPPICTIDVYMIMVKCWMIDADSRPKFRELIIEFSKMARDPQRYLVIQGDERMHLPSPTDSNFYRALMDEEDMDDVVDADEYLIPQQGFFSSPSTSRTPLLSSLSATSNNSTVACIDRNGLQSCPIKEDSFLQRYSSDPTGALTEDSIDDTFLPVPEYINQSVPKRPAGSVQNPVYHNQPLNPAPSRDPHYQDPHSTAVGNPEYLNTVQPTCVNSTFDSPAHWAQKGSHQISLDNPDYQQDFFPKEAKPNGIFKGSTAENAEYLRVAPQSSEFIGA
2.70

Tell me log10 of IC50 of `O=c1c(-c2ccc(O)cc2)c(CNC2=NCCS2)oc2cc(O)cc(O)c12` when tested on Epidermal growth factor receptor (Homo sapiens, UniProt P00533).
4.72

Tell me log10 of IC50 of `O=CN/C=C/c1ccc(O)c(O)c1` when tested on Epidermal growth factor receptor (Homo sapiens, UniProt P00533).
3.75

Tell me log10 of IC50 of `CSCc1cc(/C=C2\C(=O)Nc3ccccc32)cc(CSC)c1O` when tested on Epidermal growth factor receptor (Homo sapiens, UniProt P00533).
2.60

Tell me log10 of IC50 of `CCOC(=O)C(=O)Oc1ccc(-c2c(C(=O)OCC)oc3cc(O)cc(O)c3c2=O)cc1` when tested on Epidermal growth factor receptor (Homo sapiens, UniProt P00533).
3.00

Tell me log10 of IC50 of `N#C/C(=C\c1cc(-c2ccccc2)c(O)c(-c2ccccc2)c1)C(N)=O` when tested on Epidermal growth factor receptor (Homo sapiens, UniProt P00533).
2.60

Tell me log10 of IC50 of `CCOC(=O)c1oc2cc(O)cc(O)c2c(=O)c1-c1ccc(O)cc1` when tested on Epidermal growth factor receptor (Homo sapiens, UniProt P00533).
3.77

Tell me log10 of IC50 of `CCOc1cc(/C=C2/CCNC2=O)cc(CSc2ccccc2)c1O` when tested on Epidermal growth factor receptor (Homo sapiens, UniProt P00533).
2.95

Tell me log10 of IC50 of `CC(C)c1cc(/C=C2\C(=O)Nc3ccccc32)cc(C(C)C)c1O` when tested on Epidermal growth factor receptor (Homo sapiens, UniProt P00533).
2.60

Tell me log10 of IC50 of `N#C/C(=C/c1cc(Cc2ccccc2)c(O)c(Cc2ccccc2)c1)C(N)=O` when tested on Epidermal growth factor receptor (Homo sapiens, UniProt P00533).
2.78

Tell me log10 of IC50 of `N#CC(C#N)=C1C(=O)Nc2cc(O)c(O)cc21` when tested on Epidermal growth factor receptor (Homo sapiens, UniProt P00533).
3.48

====

- experimental-system: Tyrosine-protein kinase Lck (Homo sapiens, UniProt P06239)
- Sequence (P06239 whole entry): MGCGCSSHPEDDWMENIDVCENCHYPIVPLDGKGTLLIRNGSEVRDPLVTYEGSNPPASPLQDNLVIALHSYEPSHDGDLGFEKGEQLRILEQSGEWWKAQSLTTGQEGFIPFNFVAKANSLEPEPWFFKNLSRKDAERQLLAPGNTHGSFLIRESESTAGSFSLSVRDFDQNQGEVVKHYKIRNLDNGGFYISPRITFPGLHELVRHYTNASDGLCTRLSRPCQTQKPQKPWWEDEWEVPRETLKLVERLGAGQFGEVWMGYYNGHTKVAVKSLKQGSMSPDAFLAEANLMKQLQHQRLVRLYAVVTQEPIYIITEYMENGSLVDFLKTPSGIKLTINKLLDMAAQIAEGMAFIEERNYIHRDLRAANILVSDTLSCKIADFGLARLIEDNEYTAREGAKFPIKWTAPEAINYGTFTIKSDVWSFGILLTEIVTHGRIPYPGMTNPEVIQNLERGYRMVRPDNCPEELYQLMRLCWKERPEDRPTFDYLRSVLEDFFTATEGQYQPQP
observation-type: IC50 (µM)
Give a bare numeral; the unit µM is implied.

Study these solved cases before continuing.
[[record]]
molecule = "O=c1cc(-c2cccc(O)c2)oc2cccc(O)c12"
experimental_system = "Tyrosine-protein kinase Lck (Homo sapiens, UniProt P06239)"
observed = 315

[[record]]
molecule = "O=C1c2ccccc2C(=O)c2cc(O)ccc21 [2-HYDROXYANTHRAQUINONE]"
experimental_system = "Tyrosine-protein kinase Lck (Homo sapiens, UniProt P06239)"
observed = 89.2

[[record]]
molecule = "O=c1c(O)c(-c2ccccc2)oc2cc(O)cc(O)c12"
experimental_system = "Tyrosine-protein kinase Lck (Homo sapiens, UniProt P06239)"
observed = 296

[[record]]
molecule = "COc1ccc(/C=N/Nc2ccccc2)cc1OC"
experimental_system = "Tyrosine-protein kinase Lck (Homo sapiens, UniProt P06239)"
observed = 70

[[record]]
molecule = "Cc1cc(O)c2c(c1)C(=O)c1cc(O)cc(O)c1C2=O"
experimental_system = "Tyrosine-protein kinase Lck (Homo sapiens, UniProt P06239)"
observed = 18.5

[[record]]
molecule = "O=c1cc(-c2ccc(O)c(O)c2)oc2cc(O)cc(O)c12"
experimental_system = "Tyrosine-protein kinase Lck (Homo sapiens, UniProt P06239)"
observed = 34.9

[[record]]
molecule = "Nc1ccc(-c2cc(=O)c3c(O)c(O)ccc3o2)cc1"
experimental_system = "Tyrosine-protein kinase Lck (Homo sapiens, UniProt P06239)"
observed = 7

[[record]]
molecule = "COc1cc(-c2cc(=O)c3ccc(O)cc3o2)cc(OC)c1O[Si](C)(C)C(C)(C)C"
experimental_system = "Tyrosine-protein kinase Lck (Homo sapiens, UniProt P06239)"
observed = 163


Tell me IC50 of `COc1ccc(/C=C/c2cccnc2)cc1OC` when tested on Tyrosine-protein kinase Lck (Homo sapiens, UniProt P06239).
200

Tell me IC50 of `COc1cc(-c2cc(=O)c3ccc(O)c(O)c3o2)cc(OC)c1OC` when tested on Tyrosine-protein kinase Lck (Homo sapiens, UniProt P06239).
290

Tell me IC50 of `O=c1cc(-c2ccc(O)cc2)oc2cc(O)cc(O)c12` when tested on Tyrosine-protein kinase Lck (Homo sapiens, UniProt P06239).
14.8

Tell me IC50 of `CC(C)(C)[Si](C)(C)Oc1ccc(-c2cc(=O)c3cc(O)ccc3o2)cc1` when tested on Tyrosine-protein kinase Lck (Homo sapiens, UniProt P06239).
109

Tell me IC50 of `COc1cc(-c2cc(=O)c3cc(O)ccc3o2)cc(OC)c1O` when tested on Tyrosine-protein kinase Lck (Homo sapiens, UniProt P06239).
127

Tell me IC50 of `O=c1cc(-c2ccc(O)cc2)oc2ccc(O)cc12` when tested on Tyrosine-protein kinase Lck (Homo sapiens, UniProt P06239).
11.8

Tell me IC50 of `COc1cc(-c2cc(=O)c3ccccc3o2)cc(OC)c1O` when tested on Tyrosine-protein kinase Lck (Homo sapiens, UniProt P06239).
26.8
